# Tested on: Mus musculus
# protocol_summary: Antimalarial activity against Plasmodium berghei strain in mice (Mus musculus) by parentral route and change in mean survival time in days was determined at 160 mg/kg subcutaneous dose
# Type: functional
I'd appreciate it if you could label each record using Delta MST and these ranges: b0: < 7 days; b1: ≥ 7 days and < 10 days; b2: ≥ 10 days

Solved entries (count: 5):
[[record]]
smiles_str = "Nc1nc(NO)c2cc(Sc3cccc(C(F)(F)F)c3)ccc2n1"
class_label = "b1"

[[record]]
smiles_str = "CN(N)c1nc(N)nc2ccc(S(=O)(=O)c3ccc4ccccc4c3)cc12"
class_label = "b0"

[[record]]
smiles_str = "Nc1nc(NO)c2cc(S(=O)(=O)c3ccc4ccccc4c3)ccc2n1"
class_label = "b2"

[[record]]
smiles_str = "CONc1nc(N)nc2ccc(S(=O)(=O)c3ccc4ccccc4c3)cc12"
class_label = "b1"

[[record]]
smiles_str = "ONc1nc(NO)c2cc(Sc3cccc(C(F)(F)F)c3)ccc2n1"
class_label = "b1"


Would you mind sorting CN(N)c1nc(N)nc2ccc(Sc3cccc(C(F)(F)F)c3)cc12 into the appropriate category?
b2
